Data origin: patent US20210002242A1

Reported RAW264.7 cell viability values are given for each entry in this list.
tested on: RAW264.7 cells; test: Cytotoxicity assessment, cell viability by EZ-Cytox (WST), OD 450 nm; type: cell-based, mouse; details: 100 μg/ml, 24 hours
property-label: RAW264.7 cell viability (%)

molecule: CCCCCCCCCCCCCCCC(=O)OCC1(COC(=O)C(C)C)CCC(=O)O1 (racemic)
property-label: RAW264.7 cell viability
observed-value: 100.25
//
molecule: CCCCC/C=C\C/C=C\CCCCCCCC(=O)OCC1(COC(=O)CCCCCCCCCCC)CCC(=O)O1 (racemic)
property-label: RAW264.7 cell viability
observed-value: 114.25
//
molecule: CCCCCCCCCCCCCCCC(=O)OCC1(COC(=O)CCCCCCCCCCCCC)CCC(=O)O1 (stereo not drawn)
property-label: RAW264.7 cell viability
observed-value: 93.87
//
molecule: CCCCCCCCCCCCCCCC(=O)OCC1(COC(=O)C2CC2)CCC(=O)O1 (stereo not drawn)
property-label: RAW264.7 cell viability
observed-value: 110.06
//
molecule: CCCCCCCCCCCCCCCC(=O)OCC1(COC(=O)C(C)(C)C)CCC(=O)O1 (stereo not drawn)
property-label: RAW264.7 cell viability
observed-value: 96.58
//
molecule: CCCCCCCCCCCCCCCC(=O)OCC1(COC(=O)CCCCCCCCCCC)CCC(=O)O1 (stereo not drawn)
property-label: RAW264.7 cell viability
observed-value: 95.54
//
molecule: CCCCC/C=C\C/C=C\CCCCCCCC(=O)OCC1(COC(=O)CCC)CCC(=O)O1 (racemic)
property-label: RAW264.7 cell viability
observed-value: 141.09
//
molecule: CCCCC/C=C\C/C=C\CCCCCCCC(=O)OCC1(COC(=O)CCCCCCCCCCCCC)CCC(=O)O1 (racemic)
property-label: RAW264.7 cell viability
observed-value: 105.48
//
molecule: CCCCCCCCCCCCCCCC(=O)OCC1(COC(=O)C(C)CC)CCC(=O)O1 (stereo not drawn)
property-label: RAW264.7 cell viability
observed-value: 114.45
